target: ACK1 (Homo sapiens, UniProt Q07912); test: DSF = Differential Scanning Fluorimetry, thermal shift; format: binding
Sequence (Q07912 whole entry): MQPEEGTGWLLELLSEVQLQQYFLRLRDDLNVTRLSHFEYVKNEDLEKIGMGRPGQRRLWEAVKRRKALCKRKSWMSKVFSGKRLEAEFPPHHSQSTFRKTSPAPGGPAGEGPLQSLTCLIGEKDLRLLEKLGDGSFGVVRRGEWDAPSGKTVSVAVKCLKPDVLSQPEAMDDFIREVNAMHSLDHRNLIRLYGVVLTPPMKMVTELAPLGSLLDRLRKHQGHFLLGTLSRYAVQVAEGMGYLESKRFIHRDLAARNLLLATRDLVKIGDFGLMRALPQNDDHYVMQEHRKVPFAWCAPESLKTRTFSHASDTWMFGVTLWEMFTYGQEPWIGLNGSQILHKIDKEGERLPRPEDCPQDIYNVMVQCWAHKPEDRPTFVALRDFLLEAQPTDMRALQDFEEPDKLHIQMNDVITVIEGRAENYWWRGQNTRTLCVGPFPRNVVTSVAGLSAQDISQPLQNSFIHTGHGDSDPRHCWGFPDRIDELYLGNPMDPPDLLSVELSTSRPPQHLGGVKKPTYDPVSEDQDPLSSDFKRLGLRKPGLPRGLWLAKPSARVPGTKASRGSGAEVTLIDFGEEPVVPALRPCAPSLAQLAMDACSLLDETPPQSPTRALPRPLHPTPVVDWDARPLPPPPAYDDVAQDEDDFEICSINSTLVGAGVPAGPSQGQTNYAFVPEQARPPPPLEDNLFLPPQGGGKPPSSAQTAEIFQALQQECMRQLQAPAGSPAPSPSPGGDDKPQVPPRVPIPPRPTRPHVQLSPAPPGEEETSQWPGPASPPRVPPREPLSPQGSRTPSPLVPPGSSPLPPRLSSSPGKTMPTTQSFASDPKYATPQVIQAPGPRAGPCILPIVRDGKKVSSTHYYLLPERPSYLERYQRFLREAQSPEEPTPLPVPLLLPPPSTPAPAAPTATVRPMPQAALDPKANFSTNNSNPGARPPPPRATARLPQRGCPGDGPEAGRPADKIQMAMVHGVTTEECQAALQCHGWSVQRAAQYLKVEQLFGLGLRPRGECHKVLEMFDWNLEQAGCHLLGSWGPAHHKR
reportedProperty: DSF (ΔTm (° C.)) (°C)

CC(C)S(=O)(=O)Nc1cccc(-n2ccc3cnc(Nc4ccc(N5CCN(C)CC5)c(OCCO)c4)nc32)c1 | 6.4
COc1cc(N2CCN(C)CC2)c(F)cc1Nc1ncc2ccn(-c3ccc(N4CCCS4(=O)=O)cc3)c2n1 | 5.2
CC(C)S(=O)(=O)Nc1ccc(-n2ccc3cnc(Nc4ccc(N5CCN(C)CC5)c(F)c4)nc32)cc1 | 6.1
CC(C)Oc1cc(Nc2ncc3ccn(CCc4ccccc4)c3n2)ccc1N1CCN(C)CC1 | 4.5
CN1CCN(c2ccc(Nc3ncc4ccn(-c5ccc(N6CCCS6(=O)=O)cc5)c4n3)cc2F)CC1 | 5.6
COc1cc(Nc2ncc3ccn(-c4cccc(NS(=O)(=O)C(C)C)c4)c3n2)ccc1N1CCN(C)CC1 | 6.4

(A) CC(C)Oc1cc(Nc2ncc3ccn(C[C@H]4CCCO4)c3n2)ccc1N1CCN(C)CC1
(B) COc1cc(N2CCN(C)CC2)ccc1Nc1ncc2ccn(-c3ccc(S(=O)(=O)NC(C)C)cc3)c2n1
Of the two listed items, which has the higher DSF (ΔTm (° C.))? First: A Second: B Bench note: the answer is the label of the chosen record.
B
